System: Monoclonal antibody (mAb)
Experiment: Binding affinity against human monoclonal antibody (mAb)-1B3
The source made the active and inactive calls. The rule behind the calls is not given here.
measured.property: IC50 ratio

[
  {
    "compound.structure.string": "C[C@]12CC[C@@H](O)C[C@@H]1CC[C@@H]1[C@@H]2CC[C@]2(C)C(=O)CC[C@@H]12",
    "value.reported": "inactive"
  },
  {
    "compound.structure.string": "C[C@]12C[C@H](O)[C@H]3[C@@H](CCC4=CC(=O)CC[C@@]43C)[C@@H]1CC[C@@H]2C(=O)CO",
    "value.reported": 14000
  },
  {
    "compound.structure.string": "C[C@]12CC[C@H]3[C@@H](CC[C@]4(O)C[C@@H](O)CC[C@]34C=O)[C@@]1(O)CC[C@@H]2C1=CC(=O)OC1",
    "value.reported": 3000
  },
  {
    "compound.structure.string": "C[C@]12CCC(=O)C=C1CC[C@@H]1[C@@H]2[C@@H](O)C[C@]2(C=O)[C@@H](C(=O)CO)CC[C@@H]12",
    "value.reported": "inactive"
  }
]

* * *

Measured Relative Ki, listed per entry.
Tested on: Monoclonal antibody (mAb)
Assay: Binding affinity against murine monoclonal antibody (mAb)-40-50
Answer using only a numeral; do not append any unit.

Dear colleague, I am looking for the recorded Relative Ki of the following compound: "C[C@@H]1O[C@H](O[C@H]2CC[C@@]3(C)[C@H](CC[C@@H]4[C@@H]3CC[C@]3(C)[C@@H](C5=CC(=O)OC5)CC[C@]43O)C2)[C@@H](O)[C@@H](O)[C@@H]1O"
0.6

Dear colleague, I am looking for the recorded Relative Ki of the following compound: "CC(=O)O[C@H]1C[C@]2(O)[C@@H]3CC[C@@H]4C[C@@H](O[C@@H]5C[C@H](O)[C@H](O[C@H]6C[C@H](O)[C@H](O[C@H]7C[C@H](O)[C@H](O)[C@@H](C)O7)[C@@H](C)O6)[C@@H](C)O5)CC[C@]4(C)[C@H]3CC[C@]2(C)[C@H]1C1=CC(=O)OC1"
58

Dear colleague, I am looking for the recorded Relative Ki of the following compound: "CC(=O)O[C@H]1CC[C@@]2(C)[C@H](CC[C@@H]3[C@@H]2CC[C@]2(C)[C@@H](C4=CC(=O)OC4)[C@@H](O)C[C@]32O)C1"
74

* * *

Test system: Monoclonal antibody (mAb)
Assay: Binding affinity against human monoclonal antibody (mAb)-1B3
measured.property: IC50 ratio

The examples below pair each entry with its known result.
[
  {
    "compound": "C[C@]12CC[C@H](O)CC1=CC[C@@H]1[C@@H]2CC[C@]2(C)C(=O)CC[C@@H]12",
    "IC50 ratio": "No inhibition"
  },
  {
    "compound": "C[C@@H]1O[C@@H](O[C@@H]2C=C3CC[C@@H]4[C@H](CC[C@]5(C)[C@@H](c6ccc(=O)oc6)CC[C@]45O)[C@@]3(C)CC2)[C@H](O)[C@H](O)[C@H]1O",
    "IC50 ratio": 670
  },
  {
    "compound": "C[C@@H]1O[C@@H](O[C@H]2C[C@@H](O)[C@]3(CO)[C@H]4[C@H](O)C[C@]5(C)[C@@H](C6=CC(=O)OC6)CC[C@]5(O)[C@@H]4CC[C@]3(O)C2)[C@H](O)[C@H](O)[C@H]1O",
    "IC50 ratio": 4100
  },
  {
    "compound": "C[C@]12CC[C@H](O)CC1CC[C@@H]1[C@@H]2CC[C@]2(C)[C@@H](C3=CC(=O)OC3)CC[C@]12O (single isomer, unassigned)",
    "IC50 ratio": 4900
  },
  {
    "compound": "CC(=O)O[C@H]1CC[C@]2(C=O)[C@H]3CC[C@]4(C)[C@@H](C5=CC(=O)OC5)CC[C@]4(O)[C@@H]3CC[C@]2(O)C1",
    "IC50 ratio": 600
  }
]

Dear colleague, I am looking for the recorded IC50 ratio of the following compound: CO[C@H]1C(O)[C@H](O[C@H]2CC[C@@]3(C)[C@H](CC[C@@H]4[C@@H]3CC[C@]3(C)[C@@H](C5=CC(=O)OC5)CC[C@]43O)C2)O[C@@H](C)[C@@H]1O[C@@H]1O[C@H](CO[C@@H]2O[C@H](CO)[C@@H](O)[C@H](O)[C@H]2O)[C@@H](O)[C@H](O)[C@H]1O (stereo not given in full)
97

Dear colleague, I am looking for the recorded IC50 ratio of the following compound: C[C@H]1O[C@@H](O[C@H]2[C@@H](O)C[C@H](O[C@H]3[C@@H](O)C[C@H](O[C@H]4CC[C@@]5(C)[C@H](CC[C@@H]6[C@@H]5CC[C@]5(C)[C@H](C7COC(=O)C7)CC[C@]65O)C4)O[C@@H]3C)O[C@@H]2C)C[C@H](O)[C@@H]1O (stereo not given in full)
340

Dear colleague, I am looking for the recorded IC50 ratio of the following compound: "C[C@]12CCC(=O)C=C1CC[C@@H]1[C@@H]2[C@@H](O)C[C@@]2(C)[C@H]1CC[C@]2(O)C(=O)CO"
No inhibition

Dear colleague, I am looking for the recorded IC50 ratio of the following compound: "C[C@H]1O[C@@H](O[C@H]2[C@@H](O)C[C@H](O[C@H]3[C@@H](O)C[C@H](O[C@H]4CC[C@@]5(C)[C@H](CC[C@@H]6[C@@H]5CC[C@]5(C)[C@@H](C7=CC(=O)OC7)CC[C@]65O)C4)O[C@@H]3C)O[C@@H]2C)C[C@H](O)[C@@H]1O"
0.3

Dear colleague, I am looking for the recorded IC50 ratio of the following compound: "CO[C@H]1C[C@H](O[C@H]2CC[C@@]3(C)[C@H](CC[C@@H]4[C@@H]3CC[C@]3(C)[C@@H](C5=CC(=O)OC5)[C@@H](OC(C)=O)C[C@]43O)C2)O[C@@H](C)[C@@H]1O"
180

Dear colleague, I am looking for the recorded IC50 ratio of the following compound: "C[C@]12CCC(=O)C=C1CC[C@@H]1[C@@H]2C(=O)C[C@@]2(C)[C@H]1CC[C@]2(O)C(=O)CO"
No inhibition
